# Target Under Test: human PPAR alpha (Homo sapiens, UniProt Q07869)
# Construct: expressed in transfected cells; host or cells: U2-OS (human osteogenic sarcoma), transient electroporation with pSG5-based expression vector
# Sequence (Q07869 239-466 limits assumed): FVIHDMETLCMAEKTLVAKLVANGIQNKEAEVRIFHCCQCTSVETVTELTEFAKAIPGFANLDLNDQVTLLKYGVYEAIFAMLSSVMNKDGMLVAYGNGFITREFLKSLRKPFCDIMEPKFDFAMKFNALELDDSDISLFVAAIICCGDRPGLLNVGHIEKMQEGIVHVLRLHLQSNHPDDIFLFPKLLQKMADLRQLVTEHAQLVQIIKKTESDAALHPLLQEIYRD
# Assay: GAL4-PPAR ligand binding domain luciferase reporter transactivation assay in transiently transfected U2-OS cells
# Type: cell-based
# Study Conditions: about 24 hours exposure, concentration giving 50% of maximal activation by reference compound (ETYA)
pEC50 values by entry
// pEC50 here means minus log10 of the molar concentration (mol/L)

Reference set, count: 3
>>> df
                                   compound  readout_kind  reported_measurement
0  CCN(Cc1ccc(Cl)cc1)C(=O)Cc1ccc(SCc2ccccc2C(=O)O)cc1 [Example 15]         pEC50                  7.57
1  CCN(Cc1ccc(C(F)(F)F)cc1)C(=O)Cc1ccc(SCc2ccccc2C(=O)O)cc1 [Example 11]         pEC50                  7.59
2  CCCCCCCN(Cc1ccc(F)cc1F)C(=O)CCc1ccc(OCc2ccccc2C(=O)O)cc1 [Example 5]         pEC50                  6.79

Could you now consider this next compound?
Tell me the measured pEC50 of CCCN(Cc1ccc(F)cc1F)C(=O)CCc1ccc(OCc2ccccc2C(=O)O)cc1 [Example 10] , please.
6.77
